- System: HCT-15 colon
- assay_comment: NCI-60 one-dose screen, 48 h (100 = growth as untreated, 0 = no growth, -100 = all killed)
- test_settings: 10 µM unless noted
Compounds without any hit were thinned out: in the full panel of roughly 83,000, 20% have a hit.
Where growth equals or exceeds 20%, the correct label is met; where it does not, the label is not met.

Task: In plain terms: is recorded growth at least 20% for COc1cc(/C=N/NC(=O)c2cnn3c2NC(c2ccccc2)C3)ccc1OCc1ccccc1 (stereo not drawn) ?
Output: not met

Task: In plain terms: is recorded growth at least 20% for COc1ccc(/C=C2\COc3ccc(-c4ccccc4)cc3C2=O)c(OC)c1 ?
Output: met

Task: In plain terms: is recorded growth at least 20% for COc1ccc(Cc2cnc(NC(=O)c3ccc4c(c3)OCCO4)s2)cc1 ?
Output: not met

Task: In plain terms: is recorded growth at least 20% for N#C/C(=C\c1ccc([N+](=O)[O-])s1)c1nc2cc(Br)ccc2s1 ?
Output: not met

Task: In plain terms: is recorded growth at least 20% for O=C(Nc1ncc(Cc2cc(Cl)ccc2Cl)s1)c1cccs1 ?
Output: met

Task: In plain terms: is recorded growth at least 20% for N#Cc1cccc(-c2ccc3c(c2)NC(=O)/C3=C\c2ccc[nH]2)c1 ?
Output: not met

Task: In plain terms: is recorded growth at least 20% for Cc1ccc(-n2cc(-c3ccccc3)c3c2N=NN2CCN=C32)cc1 ?
Output: met
